System: MOLT-4 leukemia
assay.comment: NCI tumour cell line growth inhibition, 48 h
readout.kind: TGI

{"molecule": "OC1CN(OC/C=C/c2ccccc2)CC(O)C1O (stereo unspecified)", "measurement.target": "MOLT-4 leukemia", "value.reported": "> 100 µM"}

Answer for every listed entry: what is its TGI? The entries follow.
1. CCN(CC)CCN1C(=O)c2cccc3c(-c4ccc5c(c4)ncn5C4CCCCC4)ccc(c23)C1=O
2. CC(=O)CC(=O)CCCC(=O)Nc1ccc(Cl)cc1C
3. C=CCCCCOC1C=CC(OC(C)=O)C(COC(C)=O)O1 (stereo unspecified)
4. CS(C)(=O)=N/C=C\C(=O)C(Cl)(Cl)Cl
5. CN(C)CCNC(=O)c1cccc2nc3ccc4ccccc4c3nc12

["3.88 µM", "> 100 µM", "> 100 µM", "> 100 µM", "0.124 µM"]

###

Tested on: SR leukemia
assay.comment: NCI tumour cell line growth inhibition, 48 h
readout.kind: TGI (µM)
Numbers only, in µM.

Examples with their reported TGI follow.
{"molecule": "CN(C)CC(C(=O)c1ccccc1)c1ccccc1 (stereo not drawn)", "measurement.target": "SR leukemia", "value.reported": 7.51}
{"molecule": "COC(=O)[C@]12CC[C@@H](C)[C@H](C)[C@@H]1C1=CC[C@@H]3[C@@]4(C)C[C@@H](OC(=O)c5ccco5)[C@H](O)[C@@](C)(CO)[C@@H]4[C@H](O)C[C@@]3(C)[C@]1(C)CC2", "measurement.target": "SR leukemia", "value.reported": 4.68}
{"molecule": "CC(C)(C)OC(=O)N1C(C2=COc3ccccc3O2)=COc2ccccc21", "measurement.target": "SR leukemia", "value.reported": 53.3}

Next item in the queue.
Query: TGI; subject: N#CS/C(C(Cl)=C(Cl)Cl)=C(/Cl)[N+](=O)[O-]
2.15

###

Exercise: for every item that follows, state its recorded log10(TGI).
System: LOX IMVI melanoma
assay.comment: NCI tumour cell line growth inhibition, 48 h
Hey, these are logged values: log10 of TGI, µM being the unit before logging.

Examples with their reported log10(TGI) follow.
{"compound": "Fc1ccc(-c2nc(-c3nc4ccc(Cl)cc4[nH]3)cc3c2[nH]c2ccccc23)cc1", "measurement.target": "LOX IMVI melanoma", "log10(TGI)": 0.82}
{"compound": "Cc1cc(C)nc(NS(=O)(=O)c2ccc(Nc3c4ccccc4nc4c(C(=O)NCCN(C)C)ccc(Cl)c34)cc2)n1", "measurement.target": "LOX IMVI melanoma", "log10(TGI)": 0.35}
{"compound": "COc1cc(/C=C2\\C(=O)N(c3cccc(Cl)c3)C(c3ccccc3)S2(=O)=O)cc(OC)c1OC (centres undefined)", "measurement.target": "LOX IMVI melanoma", "log10(TGI)": 1.99}
{"compound": "COC1/C=C/C(C)C(OC)CC(O)/C=C/C(C)C(C(C)C(OC)C(C)CCC(=O)C(C)C(C/C=C/N(C)C=O)OC)OC(=O)/C=C/C=C(\\C)CC(OC)C(OC)C2=CC(=O)O[C@@H](C(C)C(OC)C1)[C@H]2O (some centres undefined)", "measurement.target": "LOX IMVI melanoma", "log10(TGI)": -1.60}
{"compound": "O=C(N[C@H](c1ccc(Cl)c(Cl)c1)C1CNC1)c1ccc2cnccc2c1", "measurement.target": "LOX IMVI melanoma", "log10(TGI)": 1.14}
{"compound": "O=C1C=C2S[C@H]3C[C@]2(C=C1Br)c1c(c(O)c2c4c1=NCCC=4C=N2)N3", "measurement.target": "LOX IMVI melanoma", "log10(TGI)": 0.10}
{"compound": "CCN1CCC[C@H]1c1cc(O)c2c(c1OC)C[C@H]1C[C@H]3[C@H](N)C(=O)C(C(N)=O)=C(O)[C@@]3(O)C(=O)C1=C2O", "measurement.target": "LOX IMVI melanoma", "log10(TGI)": 0.09}

Next item in the queue.
Query: log10(TGI); subject: Cc1ccc(SSCCCS(=O)O)cc1
1.51

###

This document collects GI50 values reported for RPMI-8226 leukemia.

Examples with their reported GI50 follow.
{"compound": "CC/C(=N\\Nc1nc2ccccc2n1C)c1ccccn1", "measurement.target": "RPMI-8226 leukemia", "GI50": "0.033 µM"}
{"compound": "COc1ccc(Nc2c3ccccc3nc3c2c2ccccc2n3C)cc1", "measurement.target": "RPMI-8226 leukemia", "GI50": "3.77 µM"}
{"compound": "O=C1C2=C(C(=O)c3c(O)ccc(O)c31)N(c1ccc(N3CCOCC3)nc1)Cc1ccccc1O2", "measurement.target": "RPMI-8226 leukemia", "GI50": "0.265 µM"}
{"compound": "COc1ccc2c(c1)C(=O)c1c-2n(CCCN=[N+]=[N-])c(=O)c2ccccc12", "measurement.target": "RPMI-8226 leukemia", "GI50": "51.3 µM"}

Next item in the queue.
Form entry - test system: RPMI-8226 leukemia; read-out: GI50; compound: COc1cc2c(cc1OC)C(CCc1ccc(Cl)cc1)N(C)CC2 (stereo not given)
24.9 µM

###

Tested on: MDA-N
assay.comment: NCI tumour cell line growth inhibition, 48 h
readout.kind: TGI

Examples with their reported TGI follow.
{"compound": "O=C1C=C2S[C@H]3C[C@]2(C=C1Br)c1c(c(O)c2c4c1=NCCC=4C=N2)N3", "readout.kind": "TGI", "value.reported": "0.314 µM"}
{"compound": "O=C1/C(=C/c2ccc(O)cc2)NC(=S)N1CN1CCCCC1", "readout.kind": "TGI", "value.reported": "> 100 µM"}
{"compound": "CCN(CC)CCN1c2ccccc2Sc2ccc3ccccc3c21", "readout.kind": "TGI", "value.reported": "25.3 µM"}
{"compound": "C=C1CC(OC(C)=O)/C=C(/C)CCC(C(C)(C)O)CC1O (stereo unspecified)", "readout.kind": "TGI", "value.reported": "> 100 µM"}
{"compound": "O=C(N/N=C(/COc1cccc(Cl)c1)N=Cc1ccncc1)c1ccncc1", "readout.kind": "TGI", "value.reported": "> 100 µM"}

Next item in the queue.
Query: TGI; subject: COc1ccc(/C=C2/C(=O)N(C(=O)c3ccccc3O)N=C2C)cc1OC
> 100 µM

###

System: SN12C renal
Choose one outcome from this list and give only that: 1 (yes) = active, 0 (no) = inactive

Example cases with answers are listed next.
{"smiles.notation": "Cc1cccc(CN(C)c2ccc(CO)c(Cl)c2)c1", "measurement.target": "SN12C renal", "assigned.class": "0 (no)"}
{"smiles.notation": "CC1=C(N2CC2)C(=O)C(CO)=C(N2CC2)C1=O", "measurement.target": "SN12C renal", "assigned.class": "1 (yes)"}
{"smiles.notation": "COc1ccc(Nc2c3ccccc3nc3c2c2ccccc2n3C)cc1", "measurement.target": "SN12C renal", "assigned.class": "0 (no)"}

Please indicate how the test categorized O=C(CCCn1c2c(sc3ncccc32)c(=O)n2nnc(-c3ccccc3)c12)NCCc1cnc[nH]1 .
1 (yes)

###

Test system: HCC-2998 colon
assay.comment: NCI tumour cell line growth inhibition, 48 h
readout.kind: TGI (µM)
One number for each entry, in µM.

{"compound": "Oc1c(C(O)(c2ccccc2)c2ccc3ccccc3c2O)ccc2ccccc12", "TGI [µM]": 20}

Answer for every listed entry: what is its TGI? The entries follow.
1. O=C1C2=C(C(=O)c3c(O)ccc(O)c31)N(c1ccc(N3CCOCC3)nc1)Cc1ccccc1O2
2. Nc1nc(N)c2cc(CNc3ccc(Cl)c(Cl)c3)ccc2n1
3. O=C(CCCn1c2c(sc3ncccc32)c(=O)n2nnc(-c3ccccc3)c12)NCCc1cnc[nH]1
4. Fc1ccc(-c2nc(-c3nc4ccc(Cl)cc4[nH]3)cc3c2[nH]c2ccccc23)cc1
5. CCCCCCN(CCCCCC)CCCNc1nccc2ccccc12
6. CN(C)CCNC(=O)c1cccc2nc3ccc4ccccc4c3nc12

[2.99, 2, 29.9, 20.2, 3.75, 0.282]

Answer for every listed entry: what is its TGI? The entries follow.
1. CCCCc1ccc(Nc2nc3c(ncn3C3OC(COC(C)=O)C(OC(C)=O)C3OC(C)=O)c(=O)[nH]2)cc1 (stereo not given)
2. N#CS/C(C(Cl)=C(Cl)Cl)=C(/Cl)[N+](=O)[O-]

1. 35.5
2. 34.6

###

System: U251 CNS
Choose one outcome from this list and give only that: active, inactive

{"compound": "Clc1ccc(-c2nc3c(-c4ccc(Cl)cc4)nc(-c4ccccc4)cn3c2-c2ccc(Cl)cc2)cc1", "assigned.class": "inactive"}

Please indicate how the test categorized CCN1CCN(CCOc2ccc(CNc3ccc4nc(CCC5CCCCC5)[nH]c4c3)cc2)CC1 .
inactive

Quick one: Cn1cc(-c2csc(-c3c[nH]c4ncccc34)n2)c2cc(Br)cnc21
inactive

Quick one: CCOc1ccc(Cc2nccc3cc(OCC)c(OCC)cc23)cc1OCC
inactive

Quick one: C=CCN1C(=O)/C(=c2\sc3n(c2=O)C2C(NN=3)N(CC)C(=O)N2CC)c2ccccc21 (centres undefined)
inactive

Quick one: CCN1CCC[C@H]1c1cc(O)c2c(c1OC)C[C@H]1C[C@H]3[C@H](N)C(=O)C(C(N)=O)=C(O)[C@@]3(O)C(=O)C1=C2O
active

Quick one: Cc1cccc(CN(C)c2ccc(CO)c(Cl)c2)c1
inactive

Quick one: COc1cc(/C=C/C(=O)C(=Cc2ccc(F)c(F)c2)C(=O)/C=C/c2ccc(O)c(OC)c2)ccc1O
inactive

Quick one: O=S(=O)(NCCNc1nccc(-c2c(-c3cccc(O)c3)nc3sccn23)n1)c1ccc(F)cc1
inactive

Data provenance is PubChem BioAssay (NCI).
